- Method summary: protein stability index of a GFP-peptide fusion (yeast GPS) (PSI 1-4); higher = more stable; sorted into four equal gates, so the index is relative within each strain
- Condition info: ubr1∆
Metric: protein stability index

Some solved entries appear below for comparison.
Sequence code	protein stability index
PEILRFKVYEPLLLVGL [RPS16A]	2.65
FADKKRDCIDISIFSTP [PRP8]	3.24
SDNVSFEIQGVPPMKLA [YMR129W/POM152]	2.86
IEEEIFDDSSRIVNHKT [LIN1]	2.97
ENALIELKNELAKTKEN [YIL149C/MLP2]	2.93
NEQEEKSEEVKAEDDTG [RPC37]	2.85

Take each entry in turn and give its protein stability index.
1. STFGFNNSAPNNTNNAN [YJL041W/NSP1]
2. DSQDYILSINAIDYEPE [SMC1]

Ans.
[3.19, 3.02]
